// data source = patent EP4703388A1

Target: T1, human TF ECD-His (hTF-his) (human, UniProt P13726 33-251)
T1 construct: also called bio-hTF-his; human TF-His protein
Test: SPR Biacore T200, antibody on Protein A chip, TF-His as analyte, 1:1 model
measured.endpoint: pKd
Entry type: numeric. Quantity: pKd, the -log10 of concentration in molar units.

[
  {
    "binder": "chimeric antibody CH67 (antibody, human IgG1, kappa, V domains shown, Murine 67# variable regions + human constant regions) VH: QVQLKQSGPGLVQPSQSLSITCIVSGFSLTNYGVNWVRQSPRKGLEWLGVIWSRGNTDYNAAFISRLIISKDNSKSQVFLKMNRLQADDTAIYYCARKDAVVATDALDYWGQGTSVTVSS VL: DIVMTQSHKFMSTSLGDRVSITCKASQDVSTAVAWYQQKPGQSPKLLIYSTSYRYTGVPDRFTGSGSGTDFTFTISSVQAEDLAVYYCQQHYSTPYTFGGGTKLEIKR",
    "pKd": 7.44
  },
  {
    "binder": "hu67-7 (antibody, human IgG1, kappa, V domains shown) VH: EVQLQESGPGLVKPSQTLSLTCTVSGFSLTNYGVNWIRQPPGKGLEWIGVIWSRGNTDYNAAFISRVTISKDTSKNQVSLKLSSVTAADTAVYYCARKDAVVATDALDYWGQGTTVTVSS VL: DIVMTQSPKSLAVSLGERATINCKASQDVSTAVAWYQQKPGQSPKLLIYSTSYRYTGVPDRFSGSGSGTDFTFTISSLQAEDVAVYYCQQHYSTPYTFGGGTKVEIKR",
    "pKd": 7.84
  }
]

We next turn to a different binder, shown below.
Recall and state the measured pKd for hu67-5 (antibody, human IgG1, kappa, V domains shown) VH: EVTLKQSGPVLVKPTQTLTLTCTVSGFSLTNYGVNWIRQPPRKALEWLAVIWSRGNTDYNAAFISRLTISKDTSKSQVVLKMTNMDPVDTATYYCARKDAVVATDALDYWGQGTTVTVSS VL: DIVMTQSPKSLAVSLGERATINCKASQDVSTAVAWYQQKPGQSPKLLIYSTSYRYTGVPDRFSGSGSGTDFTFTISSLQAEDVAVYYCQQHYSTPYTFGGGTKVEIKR .
7.75
